- Study target: BRD4 (BD1+BD2) bromodomain (Homo sapiens (Human), UniProt O60885)
- Assay notes: BRD4 binding inhibition (AlphaScreen, GST-BRD4 vs tetraacetylated histone H4 peptide)
- Particulars: GST-BRD4 (BD1+BD2) vs biotinylated acetyl-histone H4 peptide, AlphaScreen; read-out: BRD4 IC50
Attribute measured: IC50 (nM)

# Molecule, Study target, Attribute measured, Unit symbol, Recorded value
rows = [
    ("COCCOc1ccc2c(c1)nc(NCCCCNC(=O)[C@@H](O)C(C)C)c1nnc(C)n12 [Example 389]", "BRD4 (BD1+BD2) bromodomain (Homo sapiens (Human), UniProt O60885)", "IC50", "nM", 2),
]

a. C/C=C/C(=O)NCCCCNc1nc2cc(OC)ccc2n2c(C)nnc12 [Example 283]
b. COCCOc1ccc2c(c1)nc(NCCCCNC(=O)[C@@H](N)C(C)C)c1nnc(C)n12 (stereo in doubt) [Example 397]
-- ask // compare: a vs b , metric IC50, want the smaller Refer to your chosen item by its label in the answer.
-- reply b
(b: 29 nM, a: 51 nM)

1. Cc1nnc2c(NCCCCNC(=O)OC(C)(C)C)nc3ccc(C(=O)Nc4ccccc4)cc3n12 [Example 538]
2. Cc1nnc2c(NCCCCNC(=O)Cc3cccs3)nc3cc(OC(C)C)ccc3n12 [Example 451]
-- ask I'd appreciate it if you could identify which of 1 and 2 has the greater IC50. Refer to your chosen entry by its label in the reply.
-- reply 1
